# Assay Notes: Plasma levels of tamoxifen and metabolites after intraductal injection of tamoxifen formulations (LC-MS)
# Format: in vivo
# Details: Tamoxifen in plasma
Measured Parameter: Cmax
Include the unit after the number when you answer.

Incoming: I am curious: what Cmax value has been reported for CC/C(=C(\c1ccccc1)c1ccc(OCCN(C)C)cc1)c1ccccc1 [Free TMX, tamoxifen] ?
Outgoing: 8.9 ng/mL

---

# Assay Notes: Breast (mammary gland) concentration of tamoxifen and 4-hydroxytamoxifen after intraductal injection
# Assay type: in vivo
# Details: breast (mammary gland), tamoxifen in breast
Measured Parameter: MRT (h)
All answers are understood in h, so give the number only.

Incoming: I am curious: what MRT value has been reported for CC/C(=C(\c1ccccc1)c1ccc(OCCN(C)C)cc1)c1ccccc1 [Free TMX, tamoxifen] ?
Outgoing: 26.5

Reference source for all entries: patent US20200121605A1
